- Test system: A-549
- run.description: SRB colorimetric assay of cell growth and viability, A-549
- Type: cell-based, human
- measurement.parameters: 48 hours exposure; read-out: LC50 A-549
Where a SMILES comes first, the peptide text is derived from it. Bridges are numbered along the chain shown (N, C = ends). [ ]: non-standard residue; d: D form. The star is where a group is joined. d(aThr) = C[C@@H](O)[C@@H](N)C(=O)O; Hexanoyl(5-Me) = CC(C)CCCC(=O)*; Orn = NCCC[C@H](N)C(=O)O; Dhb = C/C=C(\N)C(=O)O
assay.endpoint: CC50

{"compound": "C/C=C1\\NC(=O)[C@H](Cc2ccccc2)NC(=O)[C@@H](C(C)C)NC(=O)[C@@H](C(C)C)NC(=O)[C@H](NC(=O)[C@H](NC(=O)[C@H](CCCN)NC(=O)[C@H]2CCCN2C(=O)[C@H](NC(=O)[C@@H](NC(=O)[C@@H](NC(=O)[C@H](NC(=O)CCCC(C)C)C(C)C)[C@@H](C)O)C(C)C)C(C)C)C(C)C)[C@@H](C)OC(=O)[C@H](C(C)C)NC1=O [Compound 12, [D-Val^5, D-Val^7]-KF] ({Hexanoyl(5-Me)}-[dV]TV[dV][dP][Orn][dV][d(aThr)][dV][dV]F[Dhb]V; ester 8-C)", "experimental.result": "6.9 µM"}
{"compound": "C/C=C1\\NC(=O)[C@H](Cc2ccccc2)NC(=O)[C@@H](C(C)C)NC(=O)[C@@H]([C@@H](C)CC)NC(=O)[C@H](NC(=O)[C@H](NC(=O)[C@H](CCCN)NC(=O)[C@H]2CCCN2C(=O)[C@H](NC(=O)[C@@H](NC(=O)[C@@H](NC(=O)[C@H](NC(=O)c2ccccc2)C(C)C)[C@@H](C)O)C(C)C)C(C)C)[C@@H](C)CC)[C@@H](C)OC(=O)[C@H](C(C)C)NC1=O [Compound 20, [Bza^14]-KF]", "experimental.result": "3.97 µM"}

---

- System: SK-MEL-28
- run.description: SRB colorimetric assay of cell growth and viability, SK-MEL-28
- Format: cell-based, human
- measurement.parameters: 48 hours exposure
Where a SMILES comes first, the peptide text is derived from it. Bridges are numbered along the chain shown (N, C = ends). [ ]: non-standard residue; d: D form. The star is where a group is joined. d(aIle) = CC[C@H](C)[C@@H](N)C(=O)O; d(aThr) = C[C@@H](O)[C@@H](N)C(=O)O; Hexanoyl(5-Me) = CC(C)CCCC(=O)*; Orn = NCCC[C@H](N)C(=O)O; Dhb = C/C=C(\N)C(=O)O

{"molecule": "C/C=C1\\NC(=O)[C@H](Cc2ccccc2)NC(=O)[C@@H](C(C)C)NC(=O)[C@@H]([C@@H](C)CC)NC(=O)[C@H](NC(=O)[C@H](NC(=O)[C@H](CCCN)NC(=O)[C@H]2CCCN2C(=O)[C@H](NC(=O)[C@H](CC(C)C)NC(=O)[C@@H](NC(=O)[C@H](NC(=O)CCCC(C)C)C(C)C)[C@@H](C)O)C(C)C)[C@@H](C)CC)[C@@H](C)OC(=O)[C@H](C(C)C)NC1=O [Compound 45, [Leu^11]-KF] ({Hexanoyl(5-Me)}-[dV]TL[dV][dP][Orn][d(aIle)][d(aThr)][d(aIle)][dV]F[Dhb]V; ester 8-C)", "study.system": "SK-MEL-28", "output.unit": "nM", "GI50": 1030}
{"molecule": "C/C=C1\\NC(=O)[C@H](Cc2ccccc2)NC(=O)[C@@H](C(C)C)NC(=O)[C@@H]([C@@H](C)CC)NC(=O)[C@H](NC(=O)[C@H](NC(=O)[C@H](CCCN)NC(=O)[C@H]2CCCN2C(=O)[C@H](NC(=O)[C@@H](NC(=O)[C@@H](NC(=O)[C@@H](Cc2ccccc2)NC(=O)CCCC(C)C)[C@@H](C)O)C(C)C)C(C)C)[C@@H](C)CC)[C@@H](C)OC(=O)[C@H](C(C)C)NC1=O [Compound 36, [D-Phe^13]-KF]", "study.system": "SK-MEL-28", "output.unit": "nM", "GI50": 154}
